Target: Liver carboxylesterase (Sus scrofa)
Sequence (Q29550 whole entry): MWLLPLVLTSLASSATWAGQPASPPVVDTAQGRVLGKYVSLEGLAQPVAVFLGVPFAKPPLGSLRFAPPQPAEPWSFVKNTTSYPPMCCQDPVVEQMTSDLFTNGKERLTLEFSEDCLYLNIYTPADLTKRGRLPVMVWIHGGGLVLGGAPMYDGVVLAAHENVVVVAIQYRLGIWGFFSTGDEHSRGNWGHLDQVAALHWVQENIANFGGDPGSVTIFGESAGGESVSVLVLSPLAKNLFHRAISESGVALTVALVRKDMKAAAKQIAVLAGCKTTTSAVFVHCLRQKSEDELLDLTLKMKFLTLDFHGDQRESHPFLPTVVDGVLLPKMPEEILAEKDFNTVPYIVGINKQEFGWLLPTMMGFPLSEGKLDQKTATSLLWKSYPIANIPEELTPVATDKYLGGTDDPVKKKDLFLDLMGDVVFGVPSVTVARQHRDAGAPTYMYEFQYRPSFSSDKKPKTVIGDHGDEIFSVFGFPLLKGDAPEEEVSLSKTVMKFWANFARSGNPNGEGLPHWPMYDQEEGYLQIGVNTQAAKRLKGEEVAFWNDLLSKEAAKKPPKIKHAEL
Test: Inhibition of pig liver carboxylesterase after 5 mins
Quick list: IC50 per entry.
Please give a number only; it is taken to be in nM.

COMPOUND | TARGET | DATA_VALUE
CCCCCCCCCCCCSCC(=O)C(F)(F)F | Liver carboxylesterase (Sus scrofa) | 12
CCCCCCCCCCC(=O)C(F)(F)F | Liver carboxylesterase (Sus scrofa) | 25
CCCCCCCCCCSCC(=O)C(F)(F)F | Liver carboxylesterase (Sus scrofa) | 2.2

Entry CCCCCCCC[S+]([O-])CC(=O)C(F)(F)F (configuration not stated) , tested on Liver carboxylesterase (Sus scrofa), has a reported IC50 of 200

Entry CCCCSCC(=O)C(F)(F)F , tested on Liver carboxylesterase (Sus scrofa), has a reported IC50 of 20

Entry CCCCCCCCSCC(=O)C(F)(F)F , tested on Liver carboxylesterase (Sus scrofa), has a reported IC50 of 5.6

Entry CCCC[S+]([O-])CC(=O)C(F)(F)F (configuration not stated) , tested on Liver carboxylesterase (Sus scrofa), has a reported IC50 of 970

###

Target protein (sequence): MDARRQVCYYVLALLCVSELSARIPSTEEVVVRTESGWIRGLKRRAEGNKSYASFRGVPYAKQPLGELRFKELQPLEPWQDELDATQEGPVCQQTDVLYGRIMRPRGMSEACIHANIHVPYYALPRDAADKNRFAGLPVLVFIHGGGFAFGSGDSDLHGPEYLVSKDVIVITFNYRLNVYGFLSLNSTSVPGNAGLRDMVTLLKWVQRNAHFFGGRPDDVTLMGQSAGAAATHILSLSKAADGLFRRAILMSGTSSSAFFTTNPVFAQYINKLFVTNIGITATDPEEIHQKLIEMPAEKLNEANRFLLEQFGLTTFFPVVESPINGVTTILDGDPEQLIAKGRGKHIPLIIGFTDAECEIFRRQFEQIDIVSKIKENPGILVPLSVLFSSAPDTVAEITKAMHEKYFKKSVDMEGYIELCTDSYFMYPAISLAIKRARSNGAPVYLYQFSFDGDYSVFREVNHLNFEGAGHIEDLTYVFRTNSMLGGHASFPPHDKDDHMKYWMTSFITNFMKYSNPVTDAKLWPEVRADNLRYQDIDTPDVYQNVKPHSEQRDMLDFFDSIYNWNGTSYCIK
MEASURE: IC50 (nM)
Please give a number only; it is taken to be in nM.

IC50 for CCCCCCCCSCC(=O)C(F)(F)F is 22

###

Biological target: Fatty-acid amide hydrolase 1 (Homo sapiens)
Sequence (O00519 whole entry): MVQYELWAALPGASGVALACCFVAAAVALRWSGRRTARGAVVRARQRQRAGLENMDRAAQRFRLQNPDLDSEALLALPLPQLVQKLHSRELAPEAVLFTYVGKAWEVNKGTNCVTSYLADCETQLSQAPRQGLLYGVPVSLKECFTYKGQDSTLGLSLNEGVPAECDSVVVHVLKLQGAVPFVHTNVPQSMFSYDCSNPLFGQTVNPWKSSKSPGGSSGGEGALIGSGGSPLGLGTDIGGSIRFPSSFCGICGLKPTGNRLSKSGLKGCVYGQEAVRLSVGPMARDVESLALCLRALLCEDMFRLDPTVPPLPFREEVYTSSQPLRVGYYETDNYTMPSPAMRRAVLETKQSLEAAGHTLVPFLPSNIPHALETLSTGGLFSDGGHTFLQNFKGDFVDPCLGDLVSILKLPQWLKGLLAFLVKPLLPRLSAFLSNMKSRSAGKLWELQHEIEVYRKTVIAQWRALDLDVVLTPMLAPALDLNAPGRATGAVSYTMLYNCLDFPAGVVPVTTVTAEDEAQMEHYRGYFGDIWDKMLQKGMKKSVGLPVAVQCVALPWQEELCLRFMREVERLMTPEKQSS
Test: Inhibition of human recombinant FAAH after 15 mins
MEASURE: pIC50
Reminder that pIC50 is minus the log10 of a molar concentration.

MOLECULE | MEASURE | DATA_VALUE
CCCCCCCCCCSCC(=O)C(F)(F)F | pIC50 | 6.77
CCCCCCSCC(=O)C(F)(F)F | pIC50 | 5.60
CCCCCCCC[S+]([O-])CC(=O)C(F)(F)F (stereo unspecified) | pIC50 | 4.86

pIC50 for CCCCCCCCCCCCS(=O)(=O)CC(=O)C(F)(F)F is 6.55

pIC50 for CCCCCCCCCCS(=O)(=O)CC(=O)C(F)(F)F is 5.52

pIC50 for CCCCCCCCCC[S+]([O-])CC(=O)C(F)(F)F (stereo unspecified) is 5.87

pIC50 for CCCCCCCCS(=O)(=O)CC(=O)C(F)(F)F is 4.65

pIC50 for CCCCCCCCCCCCSCC(=O)C(F)(F)F is 7.05
